Target: T1, rat serum albumin (rat, UniProt P02770 25-608)
T1 construct: bought protein, amine-coupled to a CM5 chip; also called Rat SA; RSA
Assay: SPR (Biacore 8K), albumin immobilised, 25 C, 1:1 kinetics
Method: Immobilization of serum albumin to a Series S Sensor Chip CM5 surface is performed according to the manufacturer's instructions (Amine Coupling Kit BR-1000-50). Briefly, carboxyl groups on the sensor chip surfaces (flow cell 1 and 2) are activated by injecting 70 μL of a mixture containing 75 mg/ml EDC and 11.5 mg/ml NHS at 10 μL/min. […]
MEASURED ATTRIBUTE: kon (M⁻¹ s⁻¹)

[[record]]
binder = "INS Analog 29 (other, single-chain insulin B-L2-A-L1-VHH fusion; also called Ex. 29) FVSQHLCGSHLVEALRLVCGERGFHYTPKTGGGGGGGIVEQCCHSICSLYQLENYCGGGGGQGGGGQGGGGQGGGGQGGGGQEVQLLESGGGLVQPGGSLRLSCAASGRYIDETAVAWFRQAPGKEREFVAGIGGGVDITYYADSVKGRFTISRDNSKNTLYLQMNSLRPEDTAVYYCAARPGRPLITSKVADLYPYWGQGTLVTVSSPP"
unit_info = "M⁻¹ s⁻¹"
endpoint_result = 200000

[[record]]
binder = "INS Analog 23 (other, single-chain insulin B-L2-A-L1-VHH fusion; also called Ex. 23) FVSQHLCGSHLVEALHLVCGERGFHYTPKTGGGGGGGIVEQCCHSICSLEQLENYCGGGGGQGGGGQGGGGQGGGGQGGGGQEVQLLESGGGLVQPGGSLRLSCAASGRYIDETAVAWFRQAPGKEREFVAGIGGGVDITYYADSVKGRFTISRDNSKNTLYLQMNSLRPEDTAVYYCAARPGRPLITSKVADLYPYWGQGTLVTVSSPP"
unit_info = "M⁻¹ s⁻¹"
endpoint_result = 120000

[[record]]
binder = "INS Analog 26 (other, single-chain insulin B-L2-A-L1-VHH fusion; also called Ex. 26) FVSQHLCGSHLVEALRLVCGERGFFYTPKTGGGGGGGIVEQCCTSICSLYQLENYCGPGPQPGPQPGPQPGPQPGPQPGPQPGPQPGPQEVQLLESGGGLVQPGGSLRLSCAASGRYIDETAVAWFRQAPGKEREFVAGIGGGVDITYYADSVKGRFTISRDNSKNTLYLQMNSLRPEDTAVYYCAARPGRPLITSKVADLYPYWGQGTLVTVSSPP"
unit_info = "M⁻¹ s⁻¹"
endpoint_result = 170000


Cited source: patent US20220378931A1
